# tested on: hCB2 (Homo sapiens, UniProt P34972)
# Sequence (P34972 whole entry): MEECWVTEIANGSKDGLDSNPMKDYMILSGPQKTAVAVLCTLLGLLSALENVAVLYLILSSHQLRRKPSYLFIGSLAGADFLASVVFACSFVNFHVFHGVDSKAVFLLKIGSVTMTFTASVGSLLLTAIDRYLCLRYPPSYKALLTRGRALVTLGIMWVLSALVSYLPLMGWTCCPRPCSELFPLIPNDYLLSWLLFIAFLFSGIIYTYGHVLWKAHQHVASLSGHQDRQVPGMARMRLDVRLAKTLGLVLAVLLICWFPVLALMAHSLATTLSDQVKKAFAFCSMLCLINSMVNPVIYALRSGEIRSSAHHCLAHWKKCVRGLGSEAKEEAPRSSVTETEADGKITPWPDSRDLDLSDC
# test description: Agonism of CB2 receptors expressed in CHO cells, forskolin cAMP assay (Protocol IX.2)
# Format: cell-based
# Parameters: expressed in transfected cells; host or cells: CHO (h-CB2/CHO, G418-selected)
# condition context: h-CB2/CHO cells, cAMP; read-out: hCB2 Agonism IC50
pIC50: −log10 of the molar value.

molecule: CC(C)(C)NC(=O)c1nn(-c2ccc(F)cc2F)c2c1[C@@H]1CC[C@H]2C1 (single isomer, unassigned) [Example 304]
pIC50: 9.03

molecule: O=C(Nc1ccc(F)cc1F)c1nn(-c2ccc(Cl)cc2Cl)c2c1C1CCC2C1 (centres unmarked)
pIC50: 8.25

molecule: CC(C)(C)NC(=O)c1nn(-c2ccc(F)cc2)c2c1C1CCC2C1 (centres unmarked)
pIC50: 7.85

molecule: O=C(NCc1ccccc1Cl)c1nn(-c2ccc(Cl)cc2)c2c1C1CCC2C1 (centres unmarked)
pIC50: 7.44

molecule: CC(C)(C)NC(=O)c1nn(-c2ccc(F)cc2F)c2c1[C@@H]1CC[C@H]2C1 (single isomer, unassigned) [Example 305]
pIC50: 8.67

molecule: O=C(NC(CO)c1ccccc1)c1nn(-c2ccc(F)cc2F)c2c1C1CCC2C1 (centres unmarked)
pIC50: 8.01

molecule: O=C(NCC1CC1)c1nn(-c2ccc(F)cc2F)c2c1C1CCC2C1 (centres unmarked)
pIC50: 8.07

----------
# tested on: hCB2 (Homo sapiens, UniProt P34972)
# test description: In vitro binding assay using hCB2-CHO membranes, [3H]-CP-55,940 displacement (Protocol IV)
# Parameters: expressed in transfected cells; host or cells: CHO (hCB2-CHO, generated in-house)
# condition context: 1 h; hCB2-CHO membranes, [3H]-CP-55,940 displacement; read-out: % Displacement Protocol IV
observed property: inhibition at 0.3 µM (%)

compound: CN(NC(=O)c1nn(-c2ccc(Cl)cc2)c2c1C1CCC2C1)C1CCCCC1 (stereo not shown)
number: 71.8
//
compound: O=C(NC1CCCCC1)c1nn(-c2ccccc2Cl)c2c1C1CCC2C1 (stereo not shown)
number: 71.9
//
compound: O=C(NCc1ccc(F)cc1F)c1nn(-c2ccc(Cl)cc2Cl)c2c1C1CCC2C1 (stereo not shown)
number: 79.1
//
compound: O=C(NN1CCCCC1)c1nn(-c2ccccc2Cl)c2c1C1CCC2C1 (stereo not shown)
number: 15.9
//
compound: COc1ccc(-n2nc(C(=O)NN3CCCCC3)c3c2C2CC4CC(CC3C4)C2)cc1
number: 14.5
//
compound: O=C(Nc1ccc(O)cc1)c1nn(-c2ccc(F)cc2F)c2c1C1CCC2C1 (stereo not shown)
number: 64.4
//
compound: O=C(NCc1ccccc1)c1nn(-c2ccc(Br)cc2)c2c1C1CCC2C1 (stereo not shown)
number: 14.1
//
compound: O=C(NNc1ccccc1Cl)c1nn(-c2ccc(Cl)cc2Cl)c2c1C1CC3CC(C1)CC2C3
number: 22.5
//
compound: O=C(NCc1ccccc1)c1nn(-c2ccccc2Br)c2c1C1CCC2C1 (stereo not shown)
number: 18.4
//
compound: O=C(NCc1ccccc1Cl)c1nn(-c2ccc(Cl)cn2)c2c1C1CC3CC(C1)CC2C3
number: 60.7
//
compound: CC12CCC(C1)C(C)(C)C2NC(=O)c1nn(-c2ccc(Cl)cc2Cl)c2c1C1CCC2c2ccccc21 (stereo not shown)
number: 91.7
//
compound: Cc1ccc(-n2nc(C(=O)NN3CCCCC3)c3c2C2CC4CC(CC3C4)C2)cc1
number: 20.8
//
compound: O=C(NCC1CCCCC1)c1nn(-c2ccc(Cl)cc2)c2c1C1CC3CC(C1)CC2C3
number: 37.1
//
compound: O=C(NN1CCCCC1)c1nn(-c2ccc(Cl)cc2Cl)c2c1C1CC3CC(C1)CC2C3
number: 13.2
//
compound: O=C(NNc1ccc(F)cc1F)c1nn(-c2ccc(Cl)cc2Cl)c2c1C1CCC2C1 (stereo not shown)
number: 70.2
//
compound: Cc1ccc(-n2nc(C(=O)NCc3ccccc3Cl)c3c2C2CC4CC(CC3C4)C2)cc1
number: 33.8
//
compound: O=C(NNc1ccc(Cl)cc1Cl)c1nn(-c2ccccc2)c2c1C1CC3CC(C1)CC2C3
number: 24.6
//
compound: Cc1ccc(CN2NC3=C(C4CCC3C4)C2C(=O)NC(C)(C)C)cc1 (stereo not shown) [Example 336b]
number: 26.5
//
compound: O=C(NNc1ccc(Cl)cc1)c1n[nH]c2c1C1(c3ccc(Cl)cc3)CCC2C1 (stereo not shown)
number: 24.6
//
compound: O=C(NCc1ccc(F)cc1)c1nn(-c2ccc(Cl)cc2Cl)c2c1C1CCC2C1 (stereo not shown)
number: 30.4
//
compound: O=C(Nn1cnnc1)c1nn(-c2ccc(Cl)cc2Cl)c2c1C1CCC2C1 (stereo not shown)
number: 7.98
//
compound: O=C(NNc1ccc(Cl)cc1)c1nn(-c2ccc(Cl)cc2Cl)c2c1C1CCC2C1 (stereo not shown)
number: 33.3
//
compound: O=C(NCc1ccc(Cl)cc1)c1nn(-c2ccc(F)cc2F)c2c1C1CCC2C1 (stereo not shown)
number: 11.2
//
compound: O=C(NNc1ccccc1Br)c1nn(-c2ccc(Cl)cc2Cl)c2c1C1CCC2C1 (stereo not shown)
number: 79
//
compound: O=C(NNc1ccccc1)c1nn(-c2ccc(F)cc2)c2c1C1CCC2C1 (stereo not shown)
number: 0.9
//
compound: CCOc1cc(F)ccc1-n1nc(C(=O)NC(C)(C)C)c2c1C1CCC2C1 (stereo not shown)
number: 88.5
//
compound: O=C(NCc1ccccc1F)c1nn(-c2ccc(Cl)cc2Cl)c2c1C1CCC2C1 (stereo not shown)
number: 84.8
//
compound: CC12CCC(c3c(C(=O)NNc4ncccc4Cl)nn(-c4ccc(Cl)cc4Cl)c31)C2(C)C (stereo not shown)
number: 23.8
//
compound: O=C(NNc1cccc(F)c1)c1nn(-c2ccc(Cl)cc2Cl)c2c1C1CCC2C1 (stereo not shown)
number: 62
//
compound: O=C(NCc1ccccc1)c1nn(-c2ccccc2Br)c2c1C1CC3CC(C1)CC2C3
number: 0.74
//
compound: O=C(NNc1ccccc1)c1n[nH]c2c1C1(c3ccccc3)CCC2C1 (stereo not shown)
number: 10.5
//
compound: CC(C)(C)NC(=O)c1nn(-c2ccc(Cl)cc2)c2c1C1CCC2C1 (stereo not shown)
number: 92.9
//
compound: O=C(NNc1ccccc1)c1nn(-c2ccc(Cl)cc2)c2c1C1CC3CC(C1)CC2C3
number: 29.8
//
compound: O=C(NNc1ccccc1)c1nn(-c2ccc(Cl)cc2)c2c1C1CCC2C1 (stereo not shown)
number: 9.4

// provenance: patent US7923465B2
